Assay: Biodistribution of the 99mTc(N) heterocomplexes in rats (organ uptake, heart accumulation, heart/lung and heart/liver ratios)
Assay type: in vivo, female Sprague-Dawley rats
Conditions: 2 min post injection
reportedEndpoint: Biodistribution in rats: Liver (% dose/g)
Answer with a number only, understood to be in % dose/g.

molecule	recordedNumber
CCOCCN1CC[P](CCCOC)(CCCOC)[99Tc+]2(#[N])([S]C(N(CCOCC)C(C)C)=[S]2)[P](CCCOC)(CCCOC)CC1 [[^99mTc(N) (PNP5) (ISOET)]^+]	2.79

Kindly review the next molecule as well.
(Q) What value of measured Biodistribution in rats: Liver is listed for CCOCCN1CC[P](CCCOC)(CCCOC)[99Tc+]2(#[N])([S]C(N(CCOCC)CCOCC)=[S]2)[P](CCCOC)(CCCOC)CC1 [[^99mTc(N) (PNP5) (DBODC)]^+] ?
(A) 2.66

###

Experiment: Biodistribution of the 99mTc(N) heterocomplexes in rats (organ uptake, heart accumulation, heart/lung and heart/liver ratios)
Type: in vivo, female Sprague-Dawley rats
Conditions: rats, 20 min
// reported Heart/lung ratio in biodistribution per item
API note: the answer field is a bare number with no unit suffix.

molecule	recordedNumber
COCCC[P]1(CCCOC)CCN(CCOC)CC[P](CCCOC)(CCCOC)[99Tc+]12(#[N])[S]C(N(CCOC)CCOC)=[S]2 [[^99m−Tc(N) (PNP3) (DPODC)^+]]	5.79

(Q) What value of measured Heart/lung ratio in biodistribution is listed for CCOCCN1CC[P](CCCOC)(CCCOC)[99Tc+]2(#[N])([S]C(N(CCOCC)C(C)C)=[S]2)[P](CCCOC)(CCCOC)CC1 [[^99mTc(N) (PNP5) (ISOET)^+]] ?
(A) 5.72

(Q) Same question, CCOCCN(CCOCC)C1=[S][99Tc+]2(#[N])([S]1)[P](CCCOC)(CCCOC)CCN(CCOC)CC[P]2(CCCOC)CCCOC [[^99m−Tc(N) (PNP3) (DBODC)^+]] this time
(A) 3.95

(Q) Same question, CCOCCN1CC[P](CCCOC)(CCCOC)[99Tc+]2(#[N])([S]C(N(CCOCC)CCOCC)=[S]2)[P](CCCOC)(CCCOC)CC1 [[^99mTc(N) (PNP5) (DBODC)^+]] this time
(A) 6.37

(Q) Same question, CCOCCC[P]1(CCCOCC)CCN(CCOCC)CC[P](CCCOCC)(CCCOCC)[99Tc+]12(#[N])[S]C(N(CCOCC)CCOCC)=[S]2 [[^99mTc(N) (PNP6) (DBODC)^+]] this time
(A) 1.48

###

// reported Biodistribution in rats: Muscle per item
Assay: Biodistribution of the 99mTc(N) heterocomplexes in rats (organ uptake, heart accumulation, heart/lung and heart/liver ratios)
Assay type: in vivo, female Sprague-Dawley rats
Details: 30 min post injection
Answer with a number only, understood to be in % dose/g.

molecule	recordedNumber
CCOCCN1CC[P](CCCOC)(CCCOC)[99Tc+]2(#[N])([S]C(N(CCOCC)C(C)C)=[S]2)[P](CCCOC)(CCCOC)CC1 [[^99mTc(N) (PNP5) (ISOET)]^+]	0.13

Kindly review the next molecule as well.
(Q) What value of measured Biodistribution in rats: Muscle is listed for CCOCCN1CC[P](CCCOC)(CCCOC)[99Tc+]2(#[N])([S]C(N(CCOCC)CCOCC)=[S]2)[P](CCCOC)(CCCOC)CC1 [[^99mTc(N) (PNP5) (DBODC)]^+] ?
(A) 0.19
